PROTOCOL SUMMARY: Cytotoxicity against HEK293 cells assessed as cell growth inhibition incubated for 4 days by CCK-8 assay
Assay type: toxicity, cell-based
REPORTED CONDITIONS: human
REPORTED METRIC: IC50 at 4 days (µM)
Only the number, expressed in µM, is required.

COc1cc(C(=O)O)ccc1NC(=O)[C@@H]1N[C@@H](CC(C)(C)C)[C@](CNCc2ccncc2)(c2ccc(Cl)cc2F)[C@H]1c1cccc(Cl)c1F | 6.25

API: the following record is the query input.
IN: Entry COc1cc(C(=O)O)ccc1NC(=O)[C@@H]1N[C@@H](CC(C)(C)C)[C@](C)(c2ccc(Cl)cc2F)[C@H]1c1cccc(Cl)c1F has what IC50 at 4 days?
OUT: 2.73

====

# collection of pKi values tested on E3 ubiquitin-protein ligase Mdm2 (Homo sapiens, UniProt Q00987)
# Sequence (Q00987 whole entry): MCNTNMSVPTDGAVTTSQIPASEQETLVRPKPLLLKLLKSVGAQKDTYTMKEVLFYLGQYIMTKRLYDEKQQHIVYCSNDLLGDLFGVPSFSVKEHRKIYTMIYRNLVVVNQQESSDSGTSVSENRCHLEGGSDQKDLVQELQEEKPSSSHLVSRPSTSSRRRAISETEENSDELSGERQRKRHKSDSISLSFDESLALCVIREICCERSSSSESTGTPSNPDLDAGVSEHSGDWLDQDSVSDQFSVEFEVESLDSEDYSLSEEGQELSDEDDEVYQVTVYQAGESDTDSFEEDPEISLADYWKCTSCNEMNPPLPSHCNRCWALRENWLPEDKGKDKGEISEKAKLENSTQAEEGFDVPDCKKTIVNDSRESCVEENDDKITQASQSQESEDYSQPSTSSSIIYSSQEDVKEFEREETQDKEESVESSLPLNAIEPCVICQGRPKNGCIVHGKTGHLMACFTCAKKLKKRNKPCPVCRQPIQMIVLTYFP
Interpret pKi as the negative base-10 log of the concentration measured in mol/L.

COc1cc(C(=O)O)ccc1NC(=O)[C@@H]1N[C@@H](CC(C)(C)C)[C@](CNCC2CCNCC2)(c2ccc(Cl)cc2F)[C@H]1c1cccc(Cl)c1F | 11.72

IN: // fetch E3 ubiquitin-protein ligase Mdm2 (Homo sapiens, UniProt Q00987) pKi for COc1cc(C(=O)O)ccc1NC(=O)[C@@H]1N[C@@H](CC(C)(C)C)[C@](CNCc2ccncc2)(c2ccc(Cl)cc2F)[C@H]1c1cccc(Cl)c1F
OUT: 8.96

====

Test system: HCT-116
PROTOCOL SUMMARY: cells
REPORTED CONDITIONS: Homo sapiens, HCT-116, 96 h
Criterion: IC50 strictly under 100 nM. Met: Satisfied. Not met: Not satisfied.

COc1cc(C(=O)O)ccc1NC(=O)[C@@H]1N[C@@H](CC(C)(C)C)[C@](CNCc2ccccn2)(c2ccc(Cl)cc2F)[C@H]1c1cccc(Cl)c1F | Not satisfied
COc1cc(C(=O)O)ccc1NC(=O)[C@@H]1N[C@@H](CC(C)(C)C)[C@](CNCc2cccnc2)(c2ccc(Cl)cc2F)[C@H]1c1cccc(Cl)c1F | Not satisfied
COc1cc(C(=O)O)ccc1NC(=O)[C@@H]1N[C@@H](CC(C)(C)C)[C@](CNCc2ccncc2)(c2ccc(Cl)cc2F)[C@H]1c1cccc(Cl)c1Cl | Satisfied
COc1ccc(C2=N[C@@H](c3ccc(Cl)cc3)[C@@H](c3ccc(Cl)cc3)N2C(=O)N2CCNC(=O)C2)c(OC(C)C)c1 | Not satisfied
COc1cc(C(=O)O)ccc1NC(=O)[C@@H]1N[C@@H](CC(C)(C)C)[C@](CNCc2ccc(O)cc2)(c2ccc(Cl)cc2F)[C@H]1c1cccc(Cl)c1F | Not satisfied

IN: Is IC50 strictly under 100 nM for the entry COc1cc(C(=O)O)ccc1NC(=O)[C@@H]1N[C@@H](CC(C)(C)C)[C@](CNCc2cccc(C(=O)O)c2)(c2ccc(Cl)cc2F)[C@H]1c1cccc(Cl)c1F ?
OUT: Not satisfied

====

PROTOCOL SUMMARY: AUC in ICR mouse at 15 mg/kg, po measured upto 24 hrs by LC-MS/MS analysis
Assay type: ADME, organism-based
Set-up: time < 24 hrs, dose 15 mg/kg, route po
REPORTED CONDITIONS: in vivo
REPORTED METRIC: AUC at 24 h (ng·h/mL)
Answer format: numeric, ng·h/mL implied, no suffix.

IN: Tell me the measured AUC at 24 h of COc1cc(C(=O)O)ccc1NC(=O)[C@@H]1N[C@@H](CC(C)(C)C)[C@](CNCc2ccncc2)(c2ccc(Cl)cc2F)[C@H]1c1cccc(Cl)c1F , please.
OUT: 1990

====

TARGET DESC: Protein Mdm4 (Homo sapiens, UniProt O15151)
Sequence (O15151 whole entry): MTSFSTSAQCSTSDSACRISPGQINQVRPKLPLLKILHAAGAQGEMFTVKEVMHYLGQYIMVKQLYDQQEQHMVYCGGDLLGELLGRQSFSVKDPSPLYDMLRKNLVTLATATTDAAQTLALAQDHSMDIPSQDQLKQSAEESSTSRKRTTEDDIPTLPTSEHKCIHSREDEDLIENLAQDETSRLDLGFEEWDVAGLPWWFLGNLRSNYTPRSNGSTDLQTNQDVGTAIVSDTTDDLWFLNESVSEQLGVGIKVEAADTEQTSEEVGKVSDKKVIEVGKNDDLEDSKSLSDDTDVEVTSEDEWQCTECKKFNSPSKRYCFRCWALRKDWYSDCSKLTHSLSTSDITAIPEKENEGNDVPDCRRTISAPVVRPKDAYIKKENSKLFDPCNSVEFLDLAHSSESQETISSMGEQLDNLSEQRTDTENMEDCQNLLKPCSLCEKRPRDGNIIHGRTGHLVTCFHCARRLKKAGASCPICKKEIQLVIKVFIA
PROTOCOL SUMMARY: Inhibition of MDM4 (unknown origin)
REPORTED METRIC: IC50

IN: Report IC50 for CC(C)(C)C[C@@H]1N[C@@H](C(=O)NCC[C@H](O)CO)[C@H](c2cccc(Cl)c2)[C@@]1(C#N)c1ccc(Cl)cc1 please.
OUT: 580 nM

====

PROTOCOL SUMMARY: Cmax in ICR mouse at 15 mg/kg, po measured upto 24 hrs by LC-MS/MS analysis
Assay type: ADME, organism-based
Set-up: time < 24 hrs, dose 15 mg/kg, route po
REPORTED CONDITIONS: in vivo
REPORTED METRIC: Cmax

IN: Would you kindly share the measured Cmax for COc1cc(C(=O)O)ccc1NC(=O)[C@@H]1N[C@@H](CC(C)(C)C)[C@](CNCc2ccncc2)(c2ccc(Cl)cc2F)[C@H]1c1cccc(Cl)c1F ?
OUT: 1080 ng/mL

====

Test system: RKO
PROTOCOL SUMMARY: cells
REPORTED CONDITIONS: Homo sapiens, 96 h
The threshold is 500 nM. Values of IC50 beneath it are tagged YES; values meeting or exceeding it are tagged NO.

COc1cc(C(=O)O)ccc1NC(=O)[C@@H]1N[C@@H](CC(C)(C)C)[C@](CNCc2cccnc2)(c2ccc(Cl)cc2F)[C@H]1c1cccc(Cl)c1F | NO
COc1cc(C(=O)O)ccc1NC(=O)[C@@H]1N[C@@H](CC(C)(C)C)[C@](CNCc2ccncc2)(c2ccc(Cl)cc2F)[C@H]1c1cccc(Cl)c1F | YES
COc1cc(C(=O)O)ccc1NC(=O)[C@@H]1N[C@@H](CC(C)(C)C)[C@](CNCc2ccccn2)(c2ccc(Cl)cc2F)[C@H]1c1cccc(Cl)c1F | NO

IN: Does the reported IC50 of COc1cc(C(=O)O)ccc1NC(=O)[C@@H]1N[C@@H](CC(C)(C)C)[C@](CNCc2ccc(O)cc2)(c2ccc(Cl)cc2F)[C@H]1c1cccc(Cl)c1F stay below 500 nM?
OUT: NO

IN: Hi there! Is IC50 for COc1cc(C(=O)O)ccc1NC(=O)[C@@H]1N[C@@H](CC(C)(C)C)[C@](CNCc2ccncc2)(c2ccc(Cl)cc2F)[C@H]1c1cccc(Cl)c1Cl below 500 nM, do you know?
OUT: YES

IN: Does COc1ccc(C2=N[C@@H](c3ccc(Cl)cc3)[C@@H](c3ccc(Cl)cc3)N2C(=O)N2CCNC(=O)C2)c(OC(C)C)c1 [NUTLIN-3] have IC50 strictly under 500 nM?
OUT: NO

====

System: HCT-116
PROTOCOL SUMMARY: cells
REPORTED CONDITIONS: Homo sapiens, HCT-116, 96 h
Listed here: items and their measured pIC50.
Formally, pIC50 is defined as -log10 of the concentration c, with c in mol/L.

Below, each entry is followed by its recorded pIC50 result.
COc1cc(C(=O)O)ccc1NC(=O)[C@@H]1N[C@@H](CC(C)(C)C)[C@](CNCc2ccncc2)(c2ccc(Cl)cc2)[C@H]1c1cccc(Cl)c1 | 6.57
COc1cc(C(=O)O)ccc1NC(=O)[C@@H]1N[C@@H](CC(C)(C)C)[C@](CNCc2cnc[nH]2)(c2ccc(Cl)cc2F)[C@H]1c1cccc(Cl)c1F | 6.31
COc1cc(C(=O)O)ccc1NC(=O)[C@@H]1N[C@@H](CC(C)(C)C)[C@](CN)(c2ccc(Cl)cc2F)[C@H]1c1cccc(Cl)c1F | 6.20
COc1cc(C(=O)O)ccc1NC(=O)[C@@H]1N[C@@H](CC(C)(C)C)[C@](CNC(=O)c2ccccc2)(c2ccc(Cl)cc2F)[C@H]1c1cccc(Cl)c1F | 6.14

IN: // query pIC50 value for entry COc1cc(C(=O)O)ccc1NC(=O)[C@@H]1N[C@@H](CC(C)(C)C)[C@](CNCc2ccncc2)(c2ccc(Cl)cc2F)[C@H]1c1cccc(Cl)c1F
OUT: 7.29

====

System: HCT-116
PROTOCOL SUMMARY: cells
REPORTED CONDITIONS: Homo sapiens, HCT-116, 96 h
REPORTED METRIC: pIC50
Just so you know, pIC50 here is -log10 of the concentration in molar units; reply with that number alone.

IN: Return reported pIC50; argument: COc1cc(C(=O)O)ccc1NC(=O)[C@@H]1N[C@@H](CC(C)(C)C)[C@](CNCc2ccccc2)(c2ccc(Cl)cc2F)[C@H]1c1cccc(Cl)c1F
OUT: 6.48

IN: Quick one: pIC50 of COc1cc(C(=O)O)ccc1NC(=O)[C@@H]1N[C@@H](CC(C)(C)C)[C@](C)(c2ccc(Cl)cc2F)[C@H]1c1cccc(Cl)c1F ?
OUT: 7.22

IN: If you can, please state the reported pIC50 value of CCNC[C@]1(c2ccc(Cl)cc2F)[C@H](CC(C)(C)C)N[C@@H](C(=O)Nc2ccc(C(=O)O)cc2OC)[C@@H]1c1cccc(Cl)c1F .
OUT: 6.51

====

PROTOCOL SUMMARY: Oral bioavailability in ICR mouse at 15 mg/kg measured upto 24 hrs by LC-MS/MS analysis
Assay type: ADME, organism-based
REPORTED CONDITIONS: in vivo
REPORTED METRIC: bioavailability (%)
Number only, in %; omit the unit.

IN: Can you look up the measured bioavailability of COc1cc(C(=O)O)ccc1NC(=O)[C@@H]1N[C@@H](CC(C)(C)C)[C@](CNCc2ccncc2)(c2ccc(Cl)cc2F)[C@H]1c1cccc(Cl)c1F for me?
OUT: 13.5
